system: LOC_OS01G48390-cb002; assay: thermal shift delta Tm vs DMSO control; higher = stronger stabilization (binding); details: 12.5 µM; protein concentration 2 µM;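 also: purified Escherichia coli-expressed rice kinase domain construct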
Decide using thermal shift delta Tm: a value greater than or equal to 2 °C is Criterion met, a smaller one is Criterion not met.

Worked examples, 3 molecules total:
Molecule	Assigned Category
CN1CCN(CCOc2cc(OC3CCOCC3)c3c(Nc4c(Cl)ccc5c4OCO5)ncnc3c2)CC1	Criterion not met
C[C@@H](Oc1ccc2[nH]nc(/C=C/c3cnn(CCO)c3)c2c1)c1c(Cl)cncc1Cl	Criterion met
COc1cc(N2CCN(C)CC2)ccc1Nc1nccc(-c2cn(C)c3cnccc23)n1	Criterion not met

Task item: Quick check, thermal shift delta Tm >= 2 °C? `NC1(c2ccc(-c3nc4ccn5c(=O)[nH]nc5c4cc3-c3ccccc3)cc2)CCC1`
Reply: Criterion not met

Task item: Quick check, thermal shift delta Tm >= 2 °C? `C=CC(=O)N1CCC[C@@H](n2nc(-c3ccc(Oc4ccccc4)cc3)c3c(N)ncnc32)C1`
Reply: Criterion not met

Task item: Quick check, thermal shift delta Tm >= 2 °C? `COc1ccc(Cl)cc1NC(=O)Nc1cc(C)nc2ccccc12`
Reply: Criterion met

Task item: Quick check, thermal shift delta Tm >= 2 °C? CNC(=O)c1cc(Oc2ccc(NC(=O)Nc3ccc(Cl)c(C(F)(F)F)c3)cc2)ccn1 [Sorafenib]
Reply: Criterion met

Task item: Quick check, thermal shift delta Tm >= 2 °C? `O=C(O)c1ccc(-c2c[nH]c3ncc(-c4ccccc4)cc23)cc1C1CCCC1`
Reply: Criterion not met

Task item: Quick check, thermal shift delta Tm >= 2 °C? `Nc1ncc(-c2ccnc(Nc3ccncc3)n2)c(CC2CC2)n1`
Reply: Criterion not met

Task item: Quick check, thermal shift delta Tm >= 2 °C? `CNS(=O)(=O)Nc1nccc(Cc2c(C)c3ccc(Oc4ncccn4)cc3oc2=O)c1F`
Reply: Criterion not met

Task item: Quick check, thermal shift delta Tm >= 2 °C? `COc1cccc(-c2cc(=O)c3ccccc3o2)c1N`
Reply: Criterion not met

---

tested on: LOC_OS03G12390-cb001; assay: thermal shift delta Tm vs DMSO control; higher = stronger stabilization (binding); conditions: 12.5 µM; protein concentration 2 µM
Decide using thermal shift delta Tm: a value greater than or equal to 0.8 °C is 1, a smaller one is -1.

Worked examples, 6 molecules total:
Molecule	Assigned Category
Cc1ncc(CCCN(C)C)cc1Nc1ncc2c(n1)-c1ccc(C(F)(F)F)cc1NC(=S)C2	1
CS(=O)(=O)CCNCc1ccc(-c2ccc3ncnc(Nc4ccc(OCc5cccc(F)c5)c(Cl)c4)c3c2)o1 [Lapatinib]	1
COc1ccccc1-c1cc(Nc2cccc(CS(N)(=O)=O)c2)ncn1	-1
Cc1n[nH]c2ncc(C(=O)N3CCC[C@H]3c3ccc(Cl)cc3)cc12	-1
Nc1nc(N)c(N=O)c(OCC2CCCCC2)n1	1
COc1ncc(-c2cc(-c3ncc(CN4C[C@@H](C)O[C@@H](C)C4)o3)c3cn[nH]c3c2)cc1NS(C)(=O)=O	-1

Task item: Quick check, thermal shift delta Tm >= 0.8 °C? `O=C(c1ccc(F)c(F)c1Nc1ccc(I)cc1F)N1CC(O)([C@@H]2CCCCN2)C1`
Reply: -1

Task item: Quick check, thermal shift delta Tm >= 0.8 °C? `O=C(Nc1cccc(C(F)(F)F)c1)c1cccc2cc(Oc3cc(CO)ncn3)ccc12`
Reply: -1
